# TARGET_OF_ASSAY: Ubiquitin carboxyl-terminal hydrolase 17-like protein 5 (Homo sapiens) (UniProt A8MUK1)
# Sequence (A8MUK1 whole entry, looked up): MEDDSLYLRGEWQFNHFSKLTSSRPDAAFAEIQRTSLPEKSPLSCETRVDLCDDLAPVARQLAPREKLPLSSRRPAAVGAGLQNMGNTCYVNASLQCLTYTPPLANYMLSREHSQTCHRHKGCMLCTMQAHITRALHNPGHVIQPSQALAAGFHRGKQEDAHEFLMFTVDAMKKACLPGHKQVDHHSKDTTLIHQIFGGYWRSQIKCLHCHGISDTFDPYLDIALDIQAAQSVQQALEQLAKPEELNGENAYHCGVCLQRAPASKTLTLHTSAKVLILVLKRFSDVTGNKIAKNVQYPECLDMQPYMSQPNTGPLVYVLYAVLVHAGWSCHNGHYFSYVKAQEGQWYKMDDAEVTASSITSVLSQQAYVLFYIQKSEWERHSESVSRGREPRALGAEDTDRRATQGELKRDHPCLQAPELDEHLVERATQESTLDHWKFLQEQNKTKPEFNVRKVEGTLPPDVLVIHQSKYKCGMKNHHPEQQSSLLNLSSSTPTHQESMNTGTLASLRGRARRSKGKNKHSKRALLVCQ
# METHOD_DESCRIPTION: ubiquitin-specific protease 17 DUB inhibitors, concentration-effect assay, cell-free, verification of initial screening actives (AID 1645864)
# ASSAY_CONTEXT: purified USP17, ubiquitin-rhodamine cleavage fluorescence, 3 h
Activity calls are given as the source filed them.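 How the source made its calls: active means maximal inhibition of USP17 at or above 30% in the confirmation dose-response, a value not among the printed readouts; inactive means the rest.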
Reply using exactly one outcome from T (active), F (inactive)

Example cases with answers are listed next.
- Cc1cn[nH]c1C1COCCN1C(=O)c1ccc2ncccc2c1 (stereo not given): F
- COc1ccc(C(=O)CSc2ccc3nnc(CCNC(=O)c4ccc(OC)cc4)n3n2)cc1: F
- COc1ccc(NC(=O)C2CC(=O)Nc3c(-c4ccc(Cl)cc4)cnn32)c(OC)c1 (stereo not given): T
- CCn1c(Cn2cccn2)nc2cc(NC(=O)c3ccc(F)cc3)ccc21: F

Let's switch to this compound now.
Kindly provide the recorded test outcome for the following compound: CN1CC2CN(C(=O)c3ccc(F)cc3)CCN2Cc2ccccc21 (stereo not given)
F

---

# TARGET_OF_ASSAY: Ubiquitin carboxyl-terminal hydrolase 17-like protein 5 (Homo sapiens)
# METHOD_DESCRIPTION: ubiquitin-specific protease 17 DUB inhibitors, concentration-effect assay, cell-free, verification of initial screening actives (AID 1645864)
# ASSAY_CONTEXT: purified USP17, ubiquitin-rhodamine cleavage fluorescence, 3 h
Calls of active or inactive are those of the source.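 Rule for the calls: active = maximal inhibition of USP17 at or above 30% in the confirmation dose-response, a value not among the printed readouts; inactive = the rest.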
Pick from 1.0 for active, 0.0 for inactive when you respond.

Here are 3 compounds together with their reported answers.
* Cc1ccc(S(=O)(=O)N2CCC3(CC2)NC(=O)c2ccccc2N3)cc1C | 1.0
* O=c1c2cnc(N3CCOCC3)nc2ccn1CCc1ccccc1 | 1.0
* N#C/C(=C\c1ccc(-c2cc(Cl)ccc2Cl)o1)c1nnc2n1CCCCC2 | 0.0

Just curious, what result did "COc1ccc(-c2nc(Cn3nnc(C(=O)Nc4ccc(C)c(C)c4)c3N)c(C)o2)cc1" get here?
1.0

Which result was noted for this compound in the test: "O=C(NC1CCN(Cc2ccccc2)CC1)c1[nH]nc2c1CCc1ccccc1-2"
0.0

In this assay, the call recorded for "Cc1cc(C)cc(-n2cnc3cc(C(=O)NCCC4=CCCCC4)ccc32)c1" was what?
0.0

---

Entries and their IC50 values follow.
# TARGET_OF_ASSAY: Ubiquitin carboxyl-terminal hydrolase 17-like protein 5 (Homo sapiens)
# METHOD_DESCRIPTION: ubiquitin-specific protease 17 DUB inhibitors, concentration-effect assay, cell-free, verification of initial screening actives (AID 1645864)
# ASSAY_CONTEXT: purified USP17, ubiquitin-rhodamine cleavage fluorescence, 3 h
Calls of active or inactive are those of the source.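 Rule for the calls: active = maximal inhibition of USP17 at or above 30% in the confirmation dose-response, a value not among the printed readouts; inactive = the rest.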

These recorded examples may help you get a feel for the data.
* CC(=O)N1Cc2ccccc2CC2(CCCN(CC3CCOCC3)C2)C1 (stereo not given) | > 50 µM (inactive)
* CCCCCn1c(Sc2ccc(C)cc2)nc2c1c(=O)[nH]c(=O)n2C | 16.3 µM
* Cc1ccc(CNC(=O)CCCn2c(=O)c3sccc3n(CC(=O)Nc3cc(Cl)ccc3C)c2=O)cc1 | 2.83 µM
* CCn1c(CNc2ccc(Cl)cc2)nnc1SCC(=O)Nc1ccccc1 | > 50 µM (inactive)

Given "COc1ccccc1CNC(=O)CCCCn1c(=O)c2ccccc2n(Cc2ccccc2C#N)c1=O" , state its recorded IC50.
13.1 µM

# query: IC50 of entry "CS(=O)(=O)n1nc(NCc2ccc(F)cc2)nc1NCc1ccc(F)cc1"
> 50 µM (inactive)

Requested read-out: IC50. Entry: "COc1ccc(CN=C2NS(=O)(=O)C(c3ccc(F)cc3)=C2C)cc1OC"
18.8 µM

Reported IC50 for "Cc1cc(NC(=O)COc2ccc3oc4ccccc4c3c2)no1" : what is it?
31.4 µM

Query (molecule): "COc1cnc(-c2ccccn2)nc1Sc1ccc(C)cc1" ; field requested: IC50
> 50 µM (inactive)

Give the measured IC50 of "CSc1ccc(CNC(=O)CC2CCN(S(=O)(=O)c3ccc(C)cc3)CC2)cc1" .
23.7 µM

---

# TARGET_OF_ASSAY: Ubiquitin carboxyl-terminal hydrolase 17-like protein 5 (Homo sapiens) (UniProt A8MUK1)
# METHOD_DESCRIPTION: ubiquitin-specific protease 17 DUB inhibitors, concentration-effect assay, cell-free, verification of initial screening actives (AID 1645864)
# ASSAY_CONTEXT: purified USP17, ubiquitin-rhodamine cleavage fluorescence, 3 h
Active and inactive are the calls of the source.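 How the source made its calls: active means maximal inhibition of USP17 at or above 30% in the confirmation dose-response, a value not among the printed readouts; inactive means the rest.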
A correct response names exactly one class from active, inactive

Field: example entries. Status: answers known.
* O=[N+]([O-])c1ccc2c(c1)nc1n2CCN(Cc2ccco2)C1 | inactive
* O=C(COc1nsnc1N1CCOCC1)Nc1ccccc1F | inactive
* Cn1c(=O)c(C(=O)CN2CCN(c3ccc(O)cc3)CC2)c(N)n(Cc2ccccc2)c1=O | active
* Cc1ccc(-n2cc(C(=O)NCc3cccnc3)nn2)cc1C | active
* O=C(c1ccnn1-c1ccc2ccc(-c3ccncc3)cn12)N1CCCC1 | inactive

Per the records of this test, what outcome belongs to "Cc1nc(N2CCCC2)ncc1C(=O)Nc1ccc(F)c(F)c1" ?
active

# outcome recorded in this test, key = "CCn1c(=N)n(CCOc2ccc(F)cc2)c2ccccc21"
inactive

In this assay, the call recorded for "O=C(Nc1ncc2c(n1)-c1ccccc1CC2)C1CC1" was what?
active

Would you mind telling me which call this test gave "Cc1cc(C)c(O)c(-c2cc(C(=O)Nc3ccccc3Cl)[nH]n2)c1" ?
active

---

# TARGET_OF_ASSAY: Ubiquitin carboxyl-terminal hydrolase 17-like protein 5 (Homo sapiens)
# METHOD_DESCRIPTION: ubiquitin-specific protease 17 DUB inhibitors, concentration-effect assay, cell-free, verification of initial screening actives (AID 1645864)
# ASSAY_CONTEXT: purified USP17, ubiquitin-rhodamine cleavage fluorescence, 3 h
Active and inactive are the calls of the source.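 How the source made its calls: active means maximal inhibition of USP17 at or above 30% in the confirmation dose-response, a value not among the printed readouts; inactive means the rest.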
Permitted responses: true (active), false (inactive)

Use the examples below as a reference point.
- COc1ccc(NC(=O)Cn2cc(C(=O)c3ccc(C)cc3)c(=O)c3ccccc32)cc1: true
- CCOc1ccc(-n2c(C)cc(/C=C(\C#N)c3nc4ccccc4[nH]3)c2C)cc1: false
- O=C(Nc1ccc2c(c1)OCO2)c1cc(-c2cccnc2)n(-c2ccccc2)n1: true
- CNc1nc2c(c(=O)n1Cc1ccccc1)CN(C(=O)c1ccc(CN)cc1)CC2: true

Kindly provide the recorded test outcome for the following compound: "O=C(CSc1nnc(Cn2cnc3ccccc32)o1)Nc1ccc([N+](=O)[O-])cc1"
true

---

# TARGET_OF_ASSAY: Ubiquitin carboxyl-terminal hydrolase 17-like protein 5 (Homo sapiens)
# METHOD_DESCRIPTION: ubiquitin-specific protease 17 DUB inhibitors, concentration-effect assay, cell-free, verification of initial screening actives (AID 1645864)
# ASSAY_CONTEXT: purified USP17, ubiquitin-rhodamine cleavage fluorescence, 3 h
Calls of active or inactive are those of the source.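 Rule for the calls: active = maximal inhibition of USP17 at or above 30% in the confirmation dose-response, a value not among the printed readouts; inactive = the rest.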
Can you answer with just one of these options? active, inactive

Field: outcome | Entry: "CN1C(=O)c2cc(NC(=O)c3ccccc3Cl)ccc2Oc2ccccc21"
inactive

Dear colleague, could you share the recorded outcome for "O=C(O)Cc1ccc(Nc2nc3ccccc3n3nnnc23)cc1" when you have a moment?
inactive

Could you please tell me the result logged for "CC(C)Cc1cc(-c2nnc3sc(-c4ccco4)nn23)n[nH]1" in this assay?
inactive

Please let me know the test result on file for "NS(=O)(=O)c1cc(C(=O)OCC(=O)c2ccc3c(c2)OCCO3)ccc1Cl" .
inactive

Test call, this compound: "O=C(NCc1ccccc1)Nc1cccc2ccccc12"
active

Fill in: this test's call for "COc1c(Cl)ccc2c(=O)c3c(O)c4c5c(c3oc12)OCO[C@H]5[C@@H](OC)c1cc2c(c(O)c1-4)C(=O)N(C)[C@H](OC)[C@@H]2O" is ___
inactive

Field: outcome | Entry: "O=C1C(O)=C(c2ccc(O)cc2)C(=O)C(O)=C1c1ccccc1"
active

// return assay outcome for "COc1ccc2nc(SCC(=O)Nc3ccc(NC(C)=O)cc3)c(C)cc2c1"
active

Fill in: this test's call for "Cc1ccc(C)c(CSC2=NCCN2C(=O)c2ccco2)c1" is ___
inactive

Recorded call for "Cc1ccc(Nc2nc(Nc3cccc(F)c3)nc3nccnc23)c(C)c1" ?
inactive

Which outcome was assigned to "O=C(CCn1c(=O)c2sccc2n(CC(=O)OCc2ccccc2)c1=O)NCc1ccc2c(c1)OCO2" in this test?
active

Outcome logged for Cc1cnc(CN2CCCC(c3ccc4cn[nH]c4n3)C2)cn1 (stereo unspecified) in this assay:
inactive

Recorded call for "CC(C)c1cc(NCc2ccccc2)n2nc(-c3cccnc3)nc2n1" ?
active

Check the results log: what was the call for "Cc1ccc(NC(=O)CNC(=O)c2cc3ccccc3o2)cc1" ?
active

Returns: the outcome recorded for "O=C(NC1CCCC1)c1cccc(-c2ccc(N3CCCC3)nc2)c1" in this assay.
active

Which outcome did this test record for the compound COc1ccc(C2C(C(=O)Nc3ccccc3OC)=C(C)Nc3nnnn32)cc1Br (stereo unspecified) ?
active

Please share the test call associated with "COc1ccc(NC(=O)CC(=O)c2ccc([N+](=O)[O-])cc2)cc1S(=O)(=O)Nc1ccc(Cl)cc1" .
active

Outcome? "Cc1ccc(NC(=O)CCC(=O)Nc2ccc3nc(N4CCCCC4)cc(C)c3c2)c(Br)c1"
active

So what was the verdict on "O=c1[nH]c(C2CCN(S(=O)(=O)c3ccc(S(=O)(=O)NC4CCCC4)cc3)CC2)nc2c1nnn2Cc1cccc(Cl)c1" in this test?
inactive

What outcome does the record of this test show for "COc1ccccc1-c1nc2c3c(C)c(C)n(-c4ccc(Br)cn4)c3ncn2n1" ?
active

Check the results log: what was the call for "Cc1ccc(NC(=O)c2c3c(nc4ccccc24)CCCCC3)c(C)c1" ?
inactive
